These data points were gathered from patent US9464064B2.

Target: HCV NS3 helicase NS3h_1b(con1) (Hepatitis C virus genotype 1b)
Construct: truncated C-terminally His-tagged NS3 proteins lacking the N-terminal protease, called NS3h; His-tag (C); made in house
Test: MBHA screen of NCI mechanistic set library at 20 μM (percent inhibition, compound interference)
Assay type: biochemical
Conditions: compounds at 20 μM, MBHA with DNA substrate; assay interference calculated with Equation 2
Starred links: 1 amine or outer side, 2 acyl side, 3 side chain; linkers in the order of their positions; H or OH if unused. Positions of bridges follow the written chain, without caps; N, C: chain ends. Non-standard residues stand in square brackets, D forms with d. Residues, ends and D or L forms follow the SMILES beside them. Chains are numbered I, II in the order given. Actinocin(1to9) = Cc1c2oc3c(C)ccc(C(=O)[*:2])c3nc-2c(C(=O)[*:1])c(N)c1=O; NMeV = CN[C@H](C(=O)O)C(C)C; Sar = CNCC(=O)O
Can you tell me Int.* (Ratio) (Interference) for the items I'm about to list?
The response must be a number in Ratio with no trailing unit.

So, `CCOC(=O)CCn1ncc(Cl)c(Cl)c1=O` ? Its Int.* (Ratio) (Interference) was 1.06

Int.* (Ratio) (Interference) reading for `Cc1cc(NC(=O)NC(=O)c2ccccc2NC(=O)CN)ccc1Oc1ncc(Br)cn1.Cl` : 0.98

Form: molecule = `CC[C@@]1(O)C[C@H](O[C@H]2C[C@H](N(C)C)[C@H](O)[C@H](C)O2)c2c(cc3c(c2O)C(=O)c2c(O)ccc(O)c2C3=O)[C@H]1C(=O)OC` ; Int.* (Ratio) (Interference) = 0.49

The recorded Int.* (Ratio) (Interference) for entry `CC(=O)/C(C)=N/NC(=O)c1ccccc1O` equals 0.92

Per the record, `Nc1ccc(N)c2c1C(=O)c1ccccc1C2=O` has Int.* (Ratio) (Interference) of 1.07

Value of Int.* (Ratio) (Interference) reported for the molecule CC1=CC(O)C(O)C2(C)C1CC1OC(=O)C(O)C3C(C)C(O)C4(O)OCC13C42 (stereo not drawn) is 0.99

The recorded Int.* (Ratio) (Interference) for `CO[C@H]1/C=C\C=C(/C)C(=O)NC2=CC(=O)C(N)=C(C[C@@H](C)C[C@H](OC)[C@H](O)[C@@H](C)/C=C(\C)[C@@H]1OC(N)=O)C2=O` is 0.77

// Int.* (Ratio) (Interference) value for Cc1[nH]c(=O)[nH]c(=O)c1/C=C/C(=O)NC(CO)CC(C)C (stereo not drawn) : 1.01

// sample CC[C@H](C)[C@@H]1NC(=O)[C@@H](NC(=O)c2c3nc4c(C(=O)N[C@@H]5C(=O)N[C@@H](C(C)C)C(=O)N6CCC[C@H]6C(=O)N(C)CC(=O)N(C)[C@@H](C(C)C)C(=O)O[C@@H]5C)ccc(C)c4oc-3c(C)c(=O)c2N)[C@@H](C)OC(=O)[C@H](C(C)C)N(C)C(=O)CN(C)C(=O)[C@@H]2CCCN2C1=O [Compound 18268] (I: TIP[Sar][NMeV] / II: TVP[Sar][NMeV]; ester I:1-I:C, II:1-II:C; linker I:N-II:N via Actinocin(1to9)) , its Int.* (Ratio) (Interference) was 0.61

----------
Target: HCV NS3 helicase NS3h_1b(con1) (Hepatitis C virus genotype 1b)
Construct: truncated C-terminally His-tagged NS3 proteins lacking the N-terminal protease, called NS3h; His-tag (C); made in house
Assay: MBHA screen of NCI mechanistic set library at 20 μM (percent inhibition, compound interference)
Type: biochemical
Details: compounds at 20 μM, MBHA with DNA substrate; assay interference calculated with Equation 2
METRIC_NAME: Int.* (Ratio) (Interference)
Numbers only here, please. The scale is Ratio.

Please fill in: Int.* (Ratio) (Interference) reported for `CN1CCN(CCCN2c3ccccc3Sc3ccc(C(F)(F)F)cc32)CC1` = 0.93

Entry under test: `O=C1/C(=C/c2cccs2)Oc2ccccc21` . Its Int.* (Ratio) (Interference) was 0.96

The reported Int.* (Ratio) (Interference) of the compound `COc1ccc(-n2/c(=N/C(=S)N(C)C)ss/c2=N\C(=S)N(C)C)cc1` was 0.93

The compound listed as `Nc1ccc2c(c1)S(=O)(=O)c1cc(N)ccc1-2` shows Int.* (Ratio) (Interference) equal to 1.13

Just so you know, measured Int.* (Ratio) (Interference) for `O=[N+]([O-])c1ccc(N=Nc2c(O)[nH]c3ccccc23)c([N+](=O)[O-])c1` came out at 1.01

Briefly, Int.* (Ratio) (Interference) measured for `O=C1C(Br)=C(Br)C(=O)c2ccccc21` : 1.03

For `CC(C)OP(=O)(OC(C)C)C(N(C)C)P(=O)(OC(C)C)OC(C)C.[Cl][Sn]([Cl])([Cl])[c]1ccccc1` the compound record lists Int.* (Ratio) (Interference) as 1.04

Per the record, `Oc1ccc(-c2nc3ccccc3s2)cc1` has Int.* (Ratio) (Interference) of 1.00

Record C[N+](C)(C)CC1CCCC1=O.[I-] (stereo not shown) . Reported Int.* (Ratio) (Interference): 1.08

Please fill in: Int.* (Ratio) (Interference) reported for CCc1cccc(C(C)C)c1NC(=O)/C(=N\NC(N)=O)C(C(=O)OC)c1cnc2ccccc2n1 (stereo not shown) = 0.99

Entry COc1cc(O)c2c(c1)C(=O)c1cc3c(c(O)c1C2=O)C(OC1OC(C)C(O)C(O)C1OC)C(OC)C(C)(O)C3=O (stereo not shown) ; Int.* (Ratio) (Interference) = 0.91

Reported Int.* (Ratio) (Interference) of `Cc1ccc2[nH]c(O)c(N=Nc3ccccc3[N+](=O)[O-])c2c1` : 1.00

Briefly, Int.* (Ratio) (Interference) measured for `O=C1Nc2c(Cl)cc(Cl)cc2C1=NN=Cc1ccco1` : 0.94

// recorded Int.* (Ratio) (Interference) for `CCOC(=O)/N=C(\N)SCc1ccccc1.Cl` : 1.04

Value of measured Int.* (Ratio) (Interference) for the entry `NC(=O)NO` : 1.01

// Int.* (Ratio) (Interference) lookup, compound = COC1CC(CC2CCC(C)C(C(C)C(=O)O)O2)OC2(OC(C)(C3CCC(C)(C4OC(C5OC(O)(CO)C(C)CC5C)CC4C)O3)CC2C)C1C (stereo not shown) , result: 0.85

----------
Task for the reader: assign each of the following molecules its reported IC50.
Biological target: E. coli SSB-Cy5-dT15 complex (Escherichia coli, UniProt P0AGE0)
Construct: purchased Promega
Sequence (P0AGE0 2-178, one chain of several): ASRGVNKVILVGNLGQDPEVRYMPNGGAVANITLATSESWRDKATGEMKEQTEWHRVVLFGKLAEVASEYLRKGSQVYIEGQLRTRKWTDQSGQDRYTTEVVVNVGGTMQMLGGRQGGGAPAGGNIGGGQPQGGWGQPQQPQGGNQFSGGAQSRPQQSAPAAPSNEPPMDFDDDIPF
Test: Escherichia coli SSB Cy5-dT15 binding assay (fluorescence polarization)
Details: disruption of Cy5-dT15-SSB complex; read-out: Cy5-dT15-SSB Binding IC50
Form entry: value (µM) — number only.

Please fill in: IC50 reported for `Cc1ccc2nc(-c3ccc4nc(-c5ccc(NC(=O)c6ccc(C(F)(F)F)c(F)c6)cc5)sc4c3)sc2c1S(=O)(=O)O` = 10

Record summary for `Cc1ccc2nc(-c3ccc4nc(-c5ccc(NC(=O)Nc6ccc(C(F)(F)F)cc6)cc5)sc4c3)sc2c1S(=O)(=O)O.N` : reported IC50 = 15

IC50 reported for this molecule `Cc1ccc2nc(-c3ccc4nc(-c5ccc(NC(=O)c6ccc(Cl)c(Cl)c6)cc5)sc4c3)sc2c1S(=O)(=O)O` : 128

response.value for `Cc1ccc2nc(-c3ccc4nc(-c5ccc(NC(=O)c6ccccc6C(F)(F)F)cc5)sc4c3)sc2c1S(=O)(=O)O` (field: IC50) = 13

// `Cc1ccc2nc(-c3ccc4nc(-c5ccc(NC(=O)c6ccc(Br)cc6)cc5)sc4c3)sc2c1S(=O)(=O)O` : IC50 value = 27

For this molecule ( `Cc1ccc2nc(-c3ccc4nc(-c5ccc(NCc6ccccc6)cc5)sc4c3)sc2c1S(=O)(=O)O` ), measured IC50 is 5

----------
Molecular target: HCV NS3 helicase NS3h_1b(con1) (Hepatitis C virus genotype 1b, UniProt Q9WMX2)
Construct: truncated C-terminally His-tagged NS3 proteins lacking the N-terminal protease, called NS3h; His-tag (C); made in house
Sequence (Q9WMX2 1192-1657): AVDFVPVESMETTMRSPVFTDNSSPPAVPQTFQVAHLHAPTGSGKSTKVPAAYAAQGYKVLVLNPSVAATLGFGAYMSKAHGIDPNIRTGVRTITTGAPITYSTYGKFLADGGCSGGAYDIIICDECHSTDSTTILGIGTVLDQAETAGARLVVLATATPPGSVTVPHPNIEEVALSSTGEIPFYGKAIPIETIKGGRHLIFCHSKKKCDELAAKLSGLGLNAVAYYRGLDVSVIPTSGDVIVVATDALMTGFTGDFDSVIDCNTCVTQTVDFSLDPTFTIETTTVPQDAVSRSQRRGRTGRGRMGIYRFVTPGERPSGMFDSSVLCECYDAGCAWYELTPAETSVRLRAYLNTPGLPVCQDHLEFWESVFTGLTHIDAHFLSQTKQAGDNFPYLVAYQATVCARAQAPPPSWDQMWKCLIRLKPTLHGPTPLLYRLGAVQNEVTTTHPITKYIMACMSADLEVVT
Assay: MBHA screen of NCI mechanistic set library at 20 μM (percent inhibition, compound interference)
Assay type: biochemical
Details: compounds at 20 μM, MBHA with DNA substrate; assay interference calculated with Equation 2
Answer each item with its documented Int.* (Ratio) (Interference).
Could you give me the number in Ratio? Just the number is fine.

Lab note: measured Int.* (Ratio) (Interference) of `CCC[CH2][Pb]([Cl])([CH2]CCC)[CH2]CCC` was 0.98

The molecule listed as `C/C(=N\NC(=S)N1CCC1)c1ccccn1` shows Int.* (Ratio) (Interference) equal to 1.02

// field: Int.* (Ratio) (Interference); key: `CCCC(=O)[O-].[Na+]` ; value = 0.90

// C=C1C(=O)OC2CC1C(OC(C)=O)C/C(C)=C/CC/C(C)=C\CCC2(C)O (stereo not shown) : Int.* (Ratio) (Interference) value = 0.99

Sure, the documented Int.* (Ratio) (Interference) for COc1ccccc1Cc1nc(-c2ccccc2)nn(C2OC(COC(C)=O)C(OC(C)=O)C(OC(C)=O)C2OC(C)=O)c1=S (stereo not shown) is 1.02

Entry under test: `CC(C)c1ccc(O)c(=O)cc1` . Its Int.* (Ratio) (Interference) was 0.98

Item: `[Cl][Hg][c]1ccc2ccccc2c1` | Int.* (Ratio) (Interference): 1.00
